Test system: Acinetobacter baumannii NDM-1
Procedure details: Antibiotic susceptibility testing (MIC), AB NDM-1
Assay type: cell-based
Recorded conditions: agar or broth dilution (CLSI/EUCAST)
Measured attribute: MIC values AB NDM-1

Compound: C[C@@H](c1cccc2c(-c3ccc(CN4CCOCC4)nc3)c(C(=O)O)[nH]c12)n1cc(CN2CC(N)C2)oc1=O [IC-52]
Study system: Acinetobacter baumannii NDM-1
Measured attribute: MIC values AB NDM-1
Value reported: C (C = MIC values > 8)
//
Compound: C[C@@H](c1cccc2c(-c3ccc4c(c3)CNC4=O)c(C(=O)O)[nH]c12)N1C[C@]2(C[C@@H](CN)C2)OC1=O [IC-22]
Study system: Acinetobacter baumannii NDM-1
Measured attribute: MIC values AB NDM-1
Value reported: B (B MIC values 2 ÷ 8)
//
Compound: COc1cc(-c2c(C(=O)O)[nH]c3c([C@H](C)N4CC5(CC(CN)C5)OC4=O)cccc23)ccn1 (stereo partly drawn) [IC-20]
Study system: Acinetobacter baumannii NDM-1
Measured attribute: MIC values AB NDM-1
Value reported: B (B MIC values 2 ÷ 8)
//
Compound: C/C(=C\C(=O)NCCc1c[nH]cn1)c1cccc2c(-c3ccc(CS(C)(=O)=O)c(F)c3)c(C(=O)O)[nH]c12 [IC-103]
Study system: Acinetobacter baumannii NDM-1
Measured attribute: MIC values AB NDM-1
Value reported: C (C = MIC values > 8)
//
Compound: C[C@@H](c1cccc2c(-c3cc[nH]c(=O)c3)c(C(=O)O)[nH]c12)n1cc(CN2CC(N)C2)oc1=O [IC-54]
Study system: Acinetobacter baumannii NDM-1
Measured attribute: MIC values AB NDM-1
Value reported: B (B MIC values 2 ÷ 8)
//
Compound: COc1cc(-c2c(C(=O)O)[nH]c3c([C@H](C)N4C[C@]5(C[C@@H](CN)C5)OC4=O)cccc23)ccn1 [IC-17]
Study system: Acinetobacter baumannii NDM-1
Measured attribute: MIC values AB NDM-1
Value reported: B (B MIC values 2 ÷ 8)
//
Compound: C[C@@H](c1cccc2c(-c3ccc(NS(C)(=O)=O)c(C#N)c3)c(C(=O)O)[nH]c12)n1cc(CN2CC(N)C2)oc1=O [IC-55]
Study system: Acinetobacter baumannii NDM-1
Measured attribute: MIC values AB NDM-1
Value reported: B (B MIC values 2 ÷ 8)

Consider the compound C[C@@H](c1cccc2c(-c3ccncc3)c(C(=O)O)[nH]c12)N1C[C@]2(C[C@@H](CN)C2)OC1=O [IC-38] and give its measured MIC values AB NDM-1.
B (B MIC values 2 ÷ 8)
